System: HEK-293T
Assay: Multiplex assay against HEK293T
Assay type: toxicity, cell-based
Settings: human, 12 h, 1 µM, compound concentration 1 uM, replicate 1
property-name: Population Normal (%)
Kindly answer with a numeric value in %, unit omitted.

compound=O=C1[C@H](Cc2ccc(O)cc2)N2C(=O)CCN(C(=O)NCc3ccccc3)[C@H]2CN1Cc1cccc2ccccc12 target_under_test=HEK-293T property_name="Population Normal (%)" observed=93
compound=COc1cccc2c1c(NS(=O)(=O)c1ccc(Cl)s1)nn2Cc1cccc(CNC(=O)C(C)(C)O)c1 target_under_test=HEK-293T property_name="Population Normal (%)" observed=93
compound=CC(=O)Nc1cccc2c1c(Sc1ccc(Cl)cc1)c(C)n2CC(=O)O target_under_test=HEK-293T property_name="Population Normal (%)" observed=93
compound=CN1CCN(c2cc(-c3ccccc3)nc(N)n2)CC1 target_under_test=HEK-293T property_name="Population Normal (%)" observed=93
compound=N#Cc1cc(F)cc(-c2nc(-c3ccc(F)cn3)no2)c1 target_under_test=HEK-293T property_name="Population Normal (%)" observed=95
compound=Cc1c(CC(=O)O)c2cccnc2n1Cc1ccc(S(C)(=O)=O)cc1C(F)(F)F target_under_test=HEK-293T property_name="Population Normal (%)" observed=94
compound=Cc1cnc(-c2cc(N3CCN(C(=O)CCS(C)(=O)=O)CC3)ncc2Cl)c(C)c1 target_under_test=HEK-293T property_name="Population Normal (%)" observed=95
compound="Cl.NCCc1ccc(O)c(O)c1 [DOPAMINE HYDROCHLORIDE]" target_under_test=HEK-293T property_name="Population Normal (%)" observed=89

Give its Population Normal (%) value. Item: C[C@H](N)COC(=O)[C@@H](CCCCN)NC(=O)Cc1c(-c2ccc3ccccc3c2)[nH]c2c1ccc1ccccc12
91

Give its Population Normal (%) value. Item: COC[C@@H](c1ccc(C(F)(F)F)cc1)N1CCN(C2(C)CCN(C(=O)c3c(C)ncnc3C)CC2)C[C@@H]1C.O=C(O)/C=C\C(=O)O [VICRIVIROC MALEATE]
90

Give its Population Normal (%) value. Item: Br.CS(=O)(=O)Nc1c(O)ccc2c1CCCC2C1=NCCN1 (centres undefined)
94

Give its Population Normal (%) value. Item: COc1ccccc1N1CCN(C[C@@H](C(=O)NC(C)(C)C)c2ccccc2)CC1.Cl.Cl
92

Give its Population Normal (%) value. Item: CC(C)c1noc(N2CCC(COc3ccc(-c4ccc(S(C)(=O)=O)cc4)nc3)CC2)n1
94

Give its Population Normal (%) value. Item: Cc1noc(-c2ccc(-c3ccc(CC(=O)O)cc3)cc2)c1NC(=O)O[C@H](C)c1ccccc1Cl
94

====

Tested on: U2OS
Test: Multiplex assay against U2OS
Assay type: toxicity, cell-based
Conditions: human, 12 h, 10 µM, compound concentration 10 uM, replicate 1
We begin with a simple list: items and their reported Population Hoechst High Intensity Objects (%).
Kindly answer with a numeric value in %, unit omitted.

molecule="Br.CS(=O)(=O)Nc1c(O)ccc2c1CCCC2C1=NCCN1 (centres undefined)" observed=1
molecule="CN[C@@H](C)C(=O)N[C@H](C(=O)N1CCC[C@H]1C(=O)Nc1snnc1-c1ccccc1)C1CCCCC1 [GDC-0152]" observed=4
molecule=COc1ccccc1N1CCN(C[C@@H](C(=O)NC(C)(C)C)c2ccccc2)CC1.Cl.Cl observed=3
molecule="CCCCCC(O)/C=C/[C@H]1C(=O)CC(O)C1C/C=C\\CCCC(=O)O (some centres undefined)" observed=2
molecule=O=C1[C@H](Cc2ccc(O)cc2)N2C(=O)CCN(C(=O)NCc3ccccc3)[C@H]2CN1Cc1cccc2ccccc12 observed=3
molecule="CC(=O)Nc1cccc2c1c(Sc1ccc(Cl)cc1)c(C)n2CC(=O)O [AZD1981]" observed=2
molecule=CN(C)C(=O)Cn1cc(-c2ccc(-c3cncc4ccccc34)cc2)cn1 observed=5
molecule="CC(C)c1noc(N2CCC(COc3ccc(-c4ccc(S(C)(=O)=O)cc4)nc3)CC2)n1 [GSK-1292263]" observed=2

Proceed to the following item.
Lab note: need Population Hoechst High Intensity Objects (%) with U2OS for entry O=C(CCCc1ccccc1)Nc1nc2ccccc2c(=O)s1 , please look it up.
2

====

We begin with a simple list: items and their reported Population Fragmented Nuclei (%).
Test system: Fibroblast
Assay: Multiplex assay against human fibroblast
Assay type: toxicity, cell-based
Conditions: 48 h, 1 µM, compound concentration 1 uM, replicate 1
Kindly answer with a numeric value in %, unit omitted.

In the examples that follow, each entry is paired with its recorded Population Fragmented Nuclei (%).
compound=N#Cc1cc(F)cc(-c2nc(-c3ccc(F)cn3)no2)c1 property_name="Population Fragmented Nuclei (%)" output_unit=% observed=21
compound="O=C(NCCN1CCC(n2c(=O)[nH]c3cc(Cl)ccc32)CC1)c1ccc(F)cc1 [HALOPEMIDE]" property_name="Population Fragmented Nuclei (%)" output_unit=% observed=14
compound="COC[C@@H](c1ccc(C(F)(F)F)cc1)N1CCN(C2(C)CCN(C(=O)c3c(C)ncnc3C)CC2)C[C@@H]1C.O=C(O)/C=C\\C(=O)O [VICRIVIROC MALEATE]" property_name="Population Fragmented Nuclei (%)" output_unit=% observed=21
compound="CC(C)c1noc(N2CCC(COc3ccc(-c4ccc(S(C)(=O)=O)cc4)nc3)CC2)n1 [GSK-1292263]" property_name="Population Fragmented Nuclei (%)" output_unit=% observed=19
compound=Cc1onc(-c2ccccc2Cl)c1C(=O)N(C)c1ccc(Cl)cc1 property_name="Population Fragmented Nuclei (%)" output_unit=% observed=26

Lab note: need Population Fragmented Nuclei (%) with Fibroblast for entry O=C(CCCc1ccccc1)Nc1nc2ccccc2c(=O)s1 , please look it up.
13

Lab note: need Population Fragmented Nuclei (%) with Fibroblast for entry CCCCC1=NC2(CCCC2)C(=O)N1Cc1ccc(-c2ccccc2-c2nnn[nH]2)cc1 [IRBESARTAN] , please look it up.
21

Lab note: need Population Fragmented Nuclei (%) with Fibroblast for entry Br.CS(=O)(=O)Nc1c(O)ccc2c1CCCC2C1=NCCN1 (centres undefined) , please look it up.
14

Lab note: need Population Fragmented Nuclei (%) with Fibroblast for entry Cl.N=C(N)NC(=O)Cc1c(Cl)cccc1Cl [GUANFACINE HYDROCHLORIDE] , please look it up.
25

====

System: HEK-293T
Assay: Multiplex assay against HEK293T
Format: toxicity, cell-based
Conditions: human, 12 h, 1 µM, compound concentration 1 uM, replicate 2
property-name: Population Normal (%)
Kindly answer with a numeric value in %, unit omitted.

molecule=CC(=O)Nc1cccc2c1c(Sc1ccc(Cl)cc1)c(C)n2CC(=O)O target_under_test=HEK-293T property_name="Population Normal (%)" observed=91
molecule="Br.CS(=O)(=O)Nc1c(O)ccc2c1CCCC2C1=NCCN1 (centres undefined)" target_under_test=HEK-293T property_name="Population Normal (%)" observed=91
molecule=O=C(CCCc1ccccc1)Nc1nc2ccccc2c(=O)s1 target_under_test=HEK-293T property_name="Population Normal (%)" observed=86

Proceed to the following item.
Give its Population Normal (%) value. Item: CCCCC(=O)N(Cc1ccc(-c2ccccc2-c2nnn[nH]2)cc1)[C@H](C(=O)O)C(C)C
88

====

We begin with a simple list: items and their reported Population Apoptotic (%).
Tested on: HEK-293T
Test: Multiplex assay against HEK293T
Type: toxicity, cell-based
Conditions: human, 24 h, 1 µM, compound concentration 1 uM, replicate 2
Kindly answer with a numeric value in %, unit omitted.

In the examples that follow, each entry is paired with its recorded Population Apoptotic (%).
compound=N#Cc1c(Oc2cccc(OS(=O)(=O)CCCC(F)(F)F)c2)cccc1C(F)(F)F target_under_test=HEK-293T observed=60
compound=O=C(CCCc1ccccc1)Nc1nc2ccccc2c(=O)s1 target_under_test=HEK-293T observed=45
compound=CCCCC(=O)N(Cc1ccc(-c2ccccc2-c2nnn[nH]2)cc1)[C@H](C(=O)O)C(C)C target_under_test=HEK-293T observed=32
compound=COc1cccc2c1c(NS(=O)(=O)c1ccc(Cl)s1)nn2Cc1cccc(CNC(=O)C(C)(C)O)c1 target_under_test=HEK-293T observed=44
compound=CC[C@@H](C)Nc1nc(C)nc2c(-c3ccc(OC)nc3C)c(C)nn12 target_under_test=HEK-293T observed=45

Give its Population Apoptotic (%) value. Item: Cc1sc2c(c1C)C(c1ccc(Cl)cc1)=N[C@@H](CC(=O)NCCCCCCCCNC(=O)COc1cccc3c1C(=O)N(C1CCC(=O)NC1=O)C3=O)c1nnc(C)n1-2 (stereo partly drawn)
67

Give its Population Apoptotic (%) value. Item: CN1CCN(c2cc(-c3ccccc3)nc(N)n2)CC1
36

Give its Population Apoptotic (%) value. Item: CCc1cc2cc(NS(=O)(=O)c3ccc(C#N)cc3)ccc2n(CC)c1=O
43

Give its Population Apoptotic (%) value. Item: Cl.N=C(N)NC(=O)Cc1c(Cl)cccc1Cl [GUANFACINE HYDROCHLORIDE]
50
